Data origin: patent US20180186897A1

# TESTED ON: erythrocytes infected with P. falciparum field isolate 9775
# PROTOCOL DETAILS: flow cytometry, staining of IEs
MEASURED PROPERTY: % parasite recognition (%)
Response body: numeric value in %, unit text excluded.

{"BINDER": "MGD56 (antibody) VH: QVQLQESGPGLVKPSGTLSLTCAVSGGSITTNNWWSWVRQTPGKGLEWIGEIFRSGTTNYNPSLKSRVAISLDKSKNQFSLKLTSVTAADTAVYYCATASPFKSQRDTKDLPRPSLSAEPGTVIPLGSHVTFVCRGPVGVQTFRLQRESRSLYNDTEDVSHPSPSESEARFRIDSVSEGNAGPYRCVYYKSSKWSEESDCLELLVKTEDVTWARPQPQLDPRACPRGDLRISTDVYYMDVWGKGTTVTVSS VL: AIRMTQSPSSLSASTGDRVTITCRASQAITSYLAWYRQKPGKAPDLLIYNASTLQSGVPSRFSASGSGTDFALTITGLQSEDFVIYFCQHYYTYPPAFGQGTRLEIK", "% parasite recognition, %": 6.6}
{"BINDER": "MGD39 (antibody) VH: QVRLQESGPGLVKPSGTLSLTCTVSGGSISAYRWWSWVRQAPGKGLEWIGQVYNDGNTNYNPSLKGRVAMSVDKSKNRFSLRLASVTAADTAVYYCATISPLRPQSDTDDLPRPSISAEPGTVIPLGSHVTFVCRGPIGVQTFRLERERRSLYSDTEDVSQVSPFASEARFRIDSVSEGNAGPYRCIYYKDRKWSDQSDYLELLVKGEDVTWALPQSQLAPRACPQEELNISTDIFSMNVWGKGTTVTVSS VL: AIRMTQSPASLSASIGDRVTITCRTSHDVGNYLDWYQQKPGKAPKLLIHGASTLQTGVPSRFSGSGAGTDFTLNITCLQSGDFAMYYCQQYYSSPPGFGQGTRLEIK", "% parasite recognition, %": 15}

Ask | For the binder MGC2 (antibody) VH: EVQLVESGGGLVQPGGSLRLSCAASGFTFSNFWMGWVRQTPGKGLEWVANIKEDGSEKYYVDSVRGRFTISRDSAKNSLYLQMNSLRAEDTAVYYCVRERFCSNHIHKEEHLPRPSISPEPGTVITLGSHVTFVCRGPVGVQTFRLEKDSRSTYNDTEDVSQPSPSESEARFRIDSVSEGYAGLYRCLYYKPPKWSEQSDYLELLVKGDDVTWALYPSCGGDGEASDYNMDVWGKGTTVTVSS VL: DIQMTQSPSTLSASVGDRVTISCRASQRFSGWLAWYQQKPGKAPNLLIYKASPLAGGGPSRFSGSGSGTDFTLTISSLQPDDSATYYCQHYSNYSYTFGQGTKLEIR , give its reported % parasite recognition.
Reply | 2.9

Ask | Indicate its recorded % parasite recognition; the binder in question is MGD47 (antibody) VH: QVRLQESGPGLVKPSGTLSLTCTVSGGSISGYKWWSWVRQAPGKGLEWIGQVYDDGDTNYNPDLKGRVALSVDKSKSRFSLSLASVTAADTAIYFCATISPLRPQSDTGDLPRPSISAEPGTAIPLGSQVTFVCRGPIGVQTFRLERESRALYNDSEDVSQVSPSASEARFRIDSVSEGNAGPYRCIYYKARRWSDQSDYLELLVKGEDVTWALPQSQLAPRACPQEDLNISTDIFSTNVWGKGTTVTVSS VL: AIRMTQSPASLSASVGDRVTITCRTSQDVGNYLDWYQQKPGKAPKLLIHGASTLQAGVPSRFNGSGSGTDFTLGISCVQSGDFAIYYCQQYYTSPPVFGQGTRLEIK
Reply | 14.4
